# Test system: Heart
# procedure text: Positive inotropic activity in Sprague-Dawley rat heart assessed as heart rate at 1 umol/L (reference value: 218.67 +/- 20.62 to 260 +/- 21.81 bpm)
# Type: functional
assay metric: Activity (bpm)
Give the number; bpm is assumed, so skip it.

-- ask Looking for the measured Activity of Cc1nc(C(=O)O)c(C)nc1CO , can you help?
-- reply 259.5

-- ask Looking for the measured Activity of CC(=O)NC(CSCc1nc(C)c(CO)nc1C)C(=O)O (stereo in doubt; 4) , can you help?
-- reply 228.5

-- ask Looking for the measured Activity of Cc1nc(CO[C@@H]2O[C@H](C(=O)O)[C@@H](O)[C@H](O)[C@H]2O)c(C)nc1CO (stereo in doubt; 2) , can you help?
-- reply 234.28

-- ask Looking for the measured Activity of Cc1nc(CSCC(N)C(=O)O)c(C)nc1CO (stereo in doubt; 3) , can you help?
-- reply 231.39

-- ask Looking for the measured Activity of Cc1nc(CO)c(C)nc1CO , can you help?
-- reply 239.06
